Ref: patent US10004732B2

Test: Microsomal clearance assay (M)
Conditions: intrinsic clearance in rat liver microsomes
Counter-ions that a name gives are not always drawn.
Each record's class is read off its Assay M RLM CI(int) using these ranges: lo: < 30 µL/min/mg; mid: ≥ 30 µL/min/mg and < 100 µL/min/mg; hi: ≥ 100 µL/min/mg

Field: example entries. Status: answers known.
- compound: "Cc1cc(-c2nc(-c3cc(S(=O)(=O)NC[C@@H](C)O)ccc3C)cnc2N)ccn1 [Example 129, trifluoroacetic acid salt]"
  label_value: "lo"
- compound: "Cc1ccc(S(=O)(=O)NC[C@H]2CCCN2)cc1-c1cnc(N)c(-c2cn(C)nc2C)n1 [Example 106, hydrochloride]"
  label_value: "lo"
- compound: "CCN1CCC[C@@H]1CNS(=O)(=O)c1ccc(C)c(-c2cnc(N)c(-c3cn(C)nc3C)n2)c1 [Example 27, hydrochloride]"
  label_value: "mid"

Assign a category based on measured Assay M RLM CI(int) for Cc1ncc(-c2nc(-c3cc(S(=O)(=O)N[C@@H]4CCOC4)ccc3C)cnc2N)s1 [Example 45.7a] and give only the class name.
hi

Assign a category based on measured Assay M RLM CI(int) for `Cc1ccc(S(=O)(=O)NCC(C)(C)O)cc1-c1cnc(N)c(-c2cnc(C3CC3)s2)n1` and give only the class name.
hi

Assign a category based on measured Assay M RLM CI(int) for Cc1ncc(-c2nc(-c3cc(S(=O)(=O)NC[C@H]4CCCO4)ccc3C)cnc2N)s1 (single isomer, unassigned) [Example 45.6b] and give only the class name.
hi

Assign a category based on measured Assay M RLM CI(int) for `Cc1ccc(S(=O)(=O)N[C@H]2CC[C@H](O)CC2)cc1-c1cnc(N)c(-c2ccnc(F)c2)n1` and give only the class name.
lo

Assign a category based on measured Assay M RLM CI(int) for `Cc1cc(-c2nc(-c3cc(S(=O)(=O)NCCCCCO)ccc3C)cnc2N)ccn1` and give only the class name.
hi

Assign a category based on measured Assay M RLM CI(int) for `Cc1ccc(S(=O)(=O)NCC(F)F)cc1-c1cnc(N)c(-n2cncn2)n1` and give only the class name.
mid

Assign a category based on measured Assay M RLM CI(int) for `Cc1ccc(S(=O)(=O)NCC2(C(N)=O)CC2)cc1-c1cnc(N)c(-n2cncn2)n1` and give only the class name.
lo

Assign a category based on measured Assay M RLM CI(int) for `Cc1ccc(S(=O)(=O)NCCC(C)(C)O)cc1-c1cnc(N)c(-c2ccnn2C)n1` and give only the class name.
mid

Assign a category based on measured Assay M RLM CI(int) for `Cc1ccc(S(=O)(=O)NCCC(C)(C)O)cc1-c1cnc(N)c(-n2cccn2)n1` and give only the class name.
hi

Assign a category based on measured Assay M RLM CI(int) for `COC1(C)CN(S(=O)(=O)c2ccc(C)c(-c3cnc(N)c(-c4cn(C)nc4C)n3)c2)C1` and give only the class name.
mid

Assign a category based on measured Assay M RLM CI(int) for `Cc1cc(-c2nc(-c3cc(S(=O)(=O)NC[C@H](C)O)ccc3C)cnc2N)ccn1` and give only the class name.
lo

Assign a category based on measured Assay M RLM CI(int) for `Cc1ccc(S(=O)(=O)N2CC3(CC(O)C3)C2)cc1-c1cnc(N)c(-n2cncn2)n1` and give only the class name.
mid

====

Target: Vps34 (Homo sapiens)
Sequence (Q8NEB9 whole entry, species assumed): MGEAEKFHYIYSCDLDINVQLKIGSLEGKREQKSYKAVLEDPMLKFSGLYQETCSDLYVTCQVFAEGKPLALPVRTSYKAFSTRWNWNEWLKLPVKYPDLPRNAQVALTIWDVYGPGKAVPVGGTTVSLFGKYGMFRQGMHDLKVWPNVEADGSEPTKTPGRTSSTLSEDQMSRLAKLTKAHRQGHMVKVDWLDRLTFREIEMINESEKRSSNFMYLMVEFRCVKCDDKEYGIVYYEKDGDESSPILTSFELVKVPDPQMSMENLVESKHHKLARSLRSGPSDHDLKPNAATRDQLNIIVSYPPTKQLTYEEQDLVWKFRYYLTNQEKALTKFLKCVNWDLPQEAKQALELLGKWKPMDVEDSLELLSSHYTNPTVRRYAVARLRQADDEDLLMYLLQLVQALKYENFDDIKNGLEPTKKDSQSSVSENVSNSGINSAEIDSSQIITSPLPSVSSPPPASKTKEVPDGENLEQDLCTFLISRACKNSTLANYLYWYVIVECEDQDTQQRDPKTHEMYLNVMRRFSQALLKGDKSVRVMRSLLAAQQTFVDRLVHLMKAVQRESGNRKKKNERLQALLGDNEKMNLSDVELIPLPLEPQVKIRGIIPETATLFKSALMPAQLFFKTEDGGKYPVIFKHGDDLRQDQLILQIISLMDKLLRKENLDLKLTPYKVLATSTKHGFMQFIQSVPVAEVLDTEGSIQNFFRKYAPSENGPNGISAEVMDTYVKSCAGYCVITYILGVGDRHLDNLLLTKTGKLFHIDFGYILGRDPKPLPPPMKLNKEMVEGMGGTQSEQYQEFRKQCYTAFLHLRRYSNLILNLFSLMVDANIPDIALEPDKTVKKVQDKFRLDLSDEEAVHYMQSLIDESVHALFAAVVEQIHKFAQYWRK
Test: Kinase Glo Luminescent Kinase Assay (Kglo), assay C
Type: biochemical
reported_property: IC50

Give Vps34 (Homo sapiens) IC50 for the following compound: `Cc1ccc(S(=O)(=O)NC2CCOCC2)cc1-c1cnc(N)c(-n2cncn2)n1`
> 10 µM
